Read-out: Matrix Metallopeptidase 1 (MMP1), MMP1 (gene 4312)
protocol: BSK_hDFCGF_MMP1: BioMAP Diversity Plus: hDFCGF Assay for Matrix Metallopeptidase 1 (MMP1) Biomarker Activity (AID 2283064)
condition_notes: primary human foreskin fibroblasts; actives raise or lower the signal
Calls of active or inactive are those of the source. The calls were made as follows: active = hit-call score of the fitted dose curve at least 0.9, where 1 is the maximum; inactive = score below 0.9.
Possible outcomes: active, inactive

# molecule, class
rows = [
    ("CC(C1CC1)C(O)(Cn1cncn1)c1ccc(Cl)cc1 (configuration not stated)", "inactive"),
    ("CCOP(=S)(OCC)Oc1ccc2c(C)c(Cl)c(=O)oc2c1", "active"),
    ("CCOP(=O)(SC(C)CC)N1CCSC1=O (configuration not stated)", "inactive"),
    ("CCC(CC)Nc1c([N+](=O)[O-])cc(C)c(C)c1[N+](=O)[O-]", "active"),
    ("Nc1nc(N)nc(NC2CC2)n1", "inactive"),
    ("O=c1ccc(=O)[nH][nH]1", "inactive"),
    ("CC(C)=CC1C(C(=O)OCN2C(=O)C3=C(CCCC3)C2=O)C1(C)C (configuration not stated)", "inactive"),
]

---

target_system: mouse Cholecystokinin, CCK1 Receptor (CCKA), Cckar (gene 12425) (UniProt O08786)
Sequence (O08786 whole entry, looked up): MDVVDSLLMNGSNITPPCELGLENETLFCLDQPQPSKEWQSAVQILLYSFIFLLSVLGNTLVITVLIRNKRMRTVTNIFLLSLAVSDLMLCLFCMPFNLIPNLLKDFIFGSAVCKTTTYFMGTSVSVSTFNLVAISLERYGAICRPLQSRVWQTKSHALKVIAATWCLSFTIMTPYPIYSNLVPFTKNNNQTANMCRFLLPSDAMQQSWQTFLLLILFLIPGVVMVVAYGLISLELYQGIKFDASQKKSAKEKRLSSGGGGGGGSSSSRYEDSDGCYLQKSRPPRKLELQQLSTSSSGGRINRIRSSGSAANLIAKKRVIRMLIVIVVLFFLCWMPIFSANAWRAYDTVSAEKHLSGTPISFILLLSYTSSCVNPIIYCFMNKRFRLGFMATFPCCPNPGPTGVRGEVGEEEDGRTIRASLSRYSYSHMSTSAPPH
protocol: NVS_GPCR_mCCKAPeripheral: NovaScreen (NVS) G Protein-Coupled Receptor Assay for mouse Cholecystokinin, CCK1 Receptor (CCKA) (AID 2283285)
Records with an inconclusive call do not appear. Active and inactive are the calls of the source. Rule for the calls: active = hit-call score of the fitted dose curve at least 0.9, where 1 is the maximum; inconclusive = response in the unintended direction; inactive = score below 0.9.
Labels: 1.0 (active), 0.0 (inactive)

# molecule, target_system, class
measured = [
    ("CC[C@H](C)[C@H]1O[C@]2(C=C[C@@H]1C)C[C@@H]1C[C@@H](C/C=C(\\C)[C@@H](O[C@H]3C[C@H](OC)[C@@H](O[C@H]4C[C@H](OC)[C@@H](NC)[C@H](C)O4)[C@H](C)O3)[C@@H](C)/C=C/C=C3\\CO[C@@H]4[C@H](O)C(C)=C[C@@H](C(=O)O1)[C@]34O)O2", "mouse Cholecystokinin, CCK1 Receptor (CCKA), Cckar (gene 12425) (UniProt O08786)", 1.0),
    ("C#CCC1=C(C)C(OC(=O)C2C(C=C(C)C)C2(C)C)CC1=O (centres undefined)", "mouse Cholecystokinin, CCK1 Receptor (CCKA), Cckar (gene 12425) (UniProt O08786)", 0.0),
    ("CCCSP(=O)(OCC)Oc1ccc(Br)cc1Cl (centres undefined)", "mouse Cholecystokinin, CCK1 Receptor (CCKA), Cckar (gene 12425) (UniProt O08786)", 0.0),
    ("C[Si](Cn1cncn1)(c1ccc(F)cc1)c1ccc(F)cc1", "mouse Cholecystokinin, CCK1 Receptor (CCKA), Cckar (gene 12425) (UniProt O08786)", 1.0),
]

---

protocol: CCTE_Shafer_MEA_dev_per_network_spike_spike_number_mean: CCTE's Neural Network Formation Assay for Mean Number of Spikes in a Network Spike, Shafer Lab (AID 2284053)
Activity calls are given as the source filed them. How the source made its calls: active means hit-call score of the fitted dose curve at least 0.9, where 1 is the maximum; inactive means score below 0.9.
Possible outcomes: active, inactive

# molecule, class
data = [
    ("O=[N+]([O-])c1cc(C(F)(F)F)c(Cl)c([N+](=O)[O-])c1Nc1ncc(C(F)(F)F)cc1Cl", "active"),
    ("C#CCC1=C(C)C(OC(=O)C2C(C=C(C)C)C2(C)C)CC1=O (stereo unspecified)", "inactive"),
    ("CSC1=N[C@@](C)(c2ccccc2)C(=O)N1Nc1ccccc1", "inactive"),
    ("CCOC(=O)CC(SP(=O)(OC)OC)C(=O)OCC (stereo unspecified)", "inactive"),
    ("CN(C)[C@@H]1C(=O)C(C(N)=O)=C(O)[C@@]2(O)C(=O)C3=C(O)c4c(O)cccc4[C@@](C)(O)[C@H]3[C@H](O)[C@@H]12", "active"),
    ("C[Si](Cn1cncn1)(c1ccc(F)cc1)c1ccc(F)cc1", "inactive"),
    ("CCOP(=O)(OCC)Oc1cc(C)nc(C(C)C)n1", "inactive"),
    ("CC(=NC#N)N(C)Cc1ccc(Cl)nc1", "inactive"),
    ("CCCSP(=O)(OCC)Oc1ccc(Br)cc1Cl (stereo unspecified)", "inactive"),
    ("CCOP(=S)(OCC)Oc1ccc2c(C)c(Cl)c(=O)oc2c1", "active"),
    ("CN1COCN(Cc2cnc(Cl)s2)C1=N[N+](=O)[O-]", "inactive"),
]

---

target_system: human Protein Tyrosine Phosphatase Non-receptor Type 4 (PTPN4), PTPN4 (gene 5775) (UniProt P29074)
Sequence (P29074 whole entry, looked up): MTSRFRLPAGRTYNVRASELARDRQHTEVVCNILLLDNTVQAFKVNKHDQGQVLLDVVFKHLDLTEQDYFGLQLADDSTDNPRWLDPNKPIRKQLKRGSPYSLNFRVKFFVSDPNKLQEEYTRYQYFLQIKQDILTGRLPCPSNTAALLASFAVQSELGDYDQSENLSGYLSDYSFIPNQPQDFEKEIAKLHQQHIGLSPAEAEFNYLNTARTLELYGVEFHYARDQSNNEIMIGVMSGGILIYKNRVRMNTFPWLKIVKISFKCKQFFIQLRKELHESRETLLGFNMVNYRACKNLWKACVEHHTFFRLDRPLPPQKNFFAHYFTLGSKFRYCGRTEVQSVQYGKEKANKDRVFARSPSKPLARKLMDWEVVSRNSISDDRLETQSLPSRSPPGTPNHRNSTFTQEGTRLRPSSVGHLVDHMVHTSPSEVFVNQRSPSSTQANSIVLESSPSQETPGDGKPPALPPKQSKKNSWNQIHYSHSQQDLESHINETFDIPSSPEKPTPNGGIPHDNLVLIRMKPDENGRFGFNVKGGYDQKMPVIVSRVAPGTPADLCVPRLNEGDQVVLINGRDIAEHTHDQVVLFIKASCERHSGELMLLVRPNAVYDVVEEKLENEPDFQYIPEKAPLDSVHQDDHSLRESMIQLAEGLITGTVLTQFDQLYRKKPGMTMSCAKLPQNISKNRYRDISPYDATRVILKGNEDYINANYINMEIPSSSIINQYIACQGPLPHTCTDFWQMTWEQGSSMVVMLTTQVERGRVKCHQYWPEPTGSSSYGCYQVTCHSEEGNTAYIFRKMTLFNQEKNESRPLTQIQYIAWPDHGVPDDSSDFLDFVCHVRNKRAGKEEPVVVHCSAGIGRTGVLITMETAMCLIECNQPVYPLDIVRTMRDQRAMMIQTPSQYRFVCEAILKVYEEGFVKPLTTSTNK
protocol: NVS_ENZ_hPTPN4: NovaScreen (NVS) Enzymatic Assay for human Protein Tyrosine Phosphatase Non-receptor Type 4 (PTPN4) (AID 2283208)
Records with an inconclusive call do not appear. Active and inactive are the calls of the source. Rule for the calls: active = hit-call score of the fitted dose curve at least 0.9, where 1 is the maximum; inconclusive = response in the unintended direction; inactive = score below 0.9.
Outcome codes: active, inactive

# compound, class
records = [
    ("CCOP(=S)(OCC)OC(Cl)C(Cl)(Cl)Cl (stereo not given)", "inactive"),
    ("CN(C)[C@@H]1C(=O)C(C(N)=O)=C(O)[C@@]2(O)C(=O)C3=C(O)c4c(O)cccc4[C@@](C)(O)[C@H]3[C@H](O)[C@@H]12", "active"),
    ("Cc1ccn2nc(S(=O)(=O)Nc3c(F)cccc3F)nc2n1", "inactive"),
    ("N#CSCSC#N", "inactive"),
    ("CCCOc1nn(C(=O)NS(=O)(=O)c2ccccc2C(=O)OC)c(=O)n1C", "inactive"),
]

---

target_system: human Phosphodiesterase 4A1 (PDE4A1), PDE4A (gene 5141)
protocol: NVS_ENZ_hPDE4A1: NovaScreen (NVS) Enzymatic Assay for human Phosphodiesterase 4A1 (PDE4A1) (AID 2283191)
Results filed as inconclusive are left out. Active and inactive are the calls of the source. The calls were made as follows: active = hit-call score of the fitted dose curve at least 0.9, where 1 is the maximum; inconclusive = response in the unintended direction; inactive = score below 0.9.
Labels: true (1) = active, false (0) = inactive

# cpd_smiles, class
measured = [
    ("O=C(O)c1cc(Oc2ccc(C(F)(F)F)cc2Cl)ccc1[N+](=O)[O-]", "false (0)"),
    ("CC[C@H](C)[C@H]1O[C@]2(C=C[C@@H]1C)C[C@@H]1C[C@@H](C/C=C(\\C)[C@@H](O[C@H]3C[C@H](OC)[C@@H](O[C@H]4C[C@H](OC)[C@@H](NC)[C@H](C)O4)[C@H](C)O3)[C@@H](C)/C=C/C=C3\\CO[C@@H]4[C@H](O)C(C)=C[C@@H](C(=O)O1)[C@]34O)O2", "true (1)"),
    ("CCOP(=S)(OCC)Oc1cc(C)nc(C(C)C)n1", "false (0)"),
]

---

Read-out: Thyroid Hormone Responsive (THRSP), THRSP (gene 7069)
protocol: LTEA_HepaRG_THRSP: Life Technologies and Expression Analysis (LTEA) Assay for Thyroid Hormone Responsive (THRSP) using HepaRG (AID 2283536)
condition_notes: mRNA level, 48 h; actives raise or lower the signal
The source made the active and inactive calls. The calls were made as follows: active = hit-call score of the fitted dose curve at least 0.9, where 1 is the maximum; inactive = score below 0.9.
Labels: Y for active, N for inactive

# molecule, class
records = [
    ("CSC1=N[C@@](C)(c2ccccc2)C(=O)N1Nc1ccccc1", "Y"),
    ("CCOP(=S)(Oc1cnc(C(C)(C)C)nc1)OC(C)C (configuration not stated)", "Y"),
    ("CCOP(=S)(OCC)Oc1ccc2c(C)c(Cl)c(=O)oc2c1", "Y"),
    ("N#CSCSC#N", "Y"),
    ("C[N+]1(C)CCCCC1", "N"),
    ("CCOP(=S)(OCC)SCCSCC", "N"),
    ("C#CC(C)(C)NC(=O)c1cc(Cl)cc(Cl)c1", "N"),
]

---

Read-out: Cyclin D1 (CCND1), CCND1 (gene 595)
protocol: LTEA_HepaRG_CCND1: Life Technologies and Expression Analysis (LTEA) Assay for Cyclin D1 (CCND1) using HepaRG (AID 2283451)
condition_notes: mRNA level, 48 h; actives raise or lower the signal
Protocol: LTEA_HepaRG is a cell based, multiplexed-readout assay that uses HepaRG, a human liver cell line, with measurements taken at 48 hours after chemical dosing on a 96-well plate.LTEA_HepaRG_CCND1 is one of 102 assay component(s) measured in the LTEA HepaRG cell culture assay. It is a marker of Cell proliferation, survival, death.Data from the assay component LTEA_HepaRG_CCND1 was analyzed into 1 endpoint. […]
Activity calls are given as the source filed them. Rule for the calls: active = hit-call score of the fitted dose curve at least 0.9, where 1 is the maximum; inactive = score below 0.9.
Outcomes: Y for active, N for inactive

# compound, class
records = [
    ("CC1(C(=O)Nc2ccc(O)c(Cl)c2Cl)CCCCC1", "N"),
    ("CCc1cccc(C)c1N(C(=O)CCl)C(C)COC (stereo not drawn)", "N"),
    ("FC(F)C(F)(F)OCC(Cn1cncn1)c1ccc(Cl)cc1Cl (stereo not drawn)", "Y"),
    ("Cc1nn(-c2cc(NS(C)(=O)=O)c(Cl)cc2Cl)c(=O)n1C(F)F", "N"),
    ("COP(=O)(OC)SCn1c(=O)oc2cc(Cl)cnc21", "Y"),
    ("CN(C)C(=O)Nc1cccc(C(F)(F)F)c1", "N"),
    ("CSc1nnc(C(C)(C)C)c(=O)n1N", "N"),
    ("C=C(C)[C@H]1Cc2c(ccc3c2O[C@@H]2COc4cc(OC)c(OC)cc4[C@@H]2C3=O)O1", "Y"),
    ("CCc1cccc(CC)c1N(COC)C(=O)CCl", "N"),
    ("CC(Oc1cccc(Cl)c1)C(=O)O (stereo not drawn)", "N"),
    ("C#CC(C)(C)NC(=O)c1cc(Cl)cc(Cl)c1", "N"),
    ("CSc1nc(NC(C)C)nc(NC(C)C)n1", "N"),
    ("O=C(O)c1cc(Oc2ccc(C(F)(F)F)cc2Cl)ccc1[N+](=O)[O-]", "N"),
]

meta.source: PubChem BioAssay (EPA / NIEHS)
